Each entry below carries its reported cell viability.
System: P12-Ichikawa
protocol-summary: cell viability relative to DMSO control; higher = less cytotoxic
condition-summary: RPMI 5 mM glucose + 10% dialyzed FBS; 48 h; 15.4 µM
A number alone suffices; assume %.

compound	cell viability, %
O=C(O)[C@@H](c1ccc(OCc2ccc3ccccc3n2)cc1)C1CCCC1	102
O=C(C[C@@H]1C/C=C\CCC(=O)O[C@H](c2ccccc2)CNC1=O)NCc1ccc(Cl)cc1	120
CN1C2=CC(=O)/C(=N/NC(N)=O)C=C2CC1S(=O)(=O)[O-].[Na+] (stereo not drawn)	117
O=[S+]([O-])(/N=C/c1c(O)ccc2ccccc12)c1cccs1	109
COc1ccc2c(OCc3nnc4ccc(-c5ccccc5)nn34)ccnc2c1	109

State the recorded cell viability for this entry: "FC1=CC=C(CN2\C=C/C=C(/C(=O)N[C@@H](COC3=CC4=C(NC(=O)N4)C=C3)C5=CC=CC=C5)C2=O)C=C1F"
54.2

State the recorded cell viability for this entry: "CCc1c(O)cc(O)c(C(=O)c2ccc(OCCN3CCOCC3)c(OC)c2)c1CC(=O)N(CCOC)CCOC"
32

State the recorded cell viability for this entry: "COC(=O)Nc1ccc(-c2nc(N3CCOCC3)c3cnn(C4CCN(Cc5cccnc5)CC4)c3n2)cc1"
43.5

----------
Test system: P12-Ichikawa
protocol-summary: cell viability relative to DMSO control; higher = less cytotoxic
condition-summary: RPMI 5 mM glucose + 10% dialyzed FBS; 48 h; 0.19 µM
Each entry below carries its reported cell viability.
A number alone suffices; assume %.

# annotated cases, reported cell viability shown
compound	cell viability [%]
CC(C)(C)Cn1c(N)nc2ccc(-c3[nH]c(C(C)(C)C)nc3-c3ccc(F)cc3)nc21	89.1
O=[S+]([O-])(O)c1ccc2cc(/N=N/c3cc([S+](=O)([O-])O)c4cccnc4c3O)ccc2c1	122
COc1nccc(-c2c(-c3ccc(F)cc3)ncn2C2CCC(O)CC2)n1 (centres undefined)	123
O=C(O)c1ccc(-c2c[nH]c3ncc(-c4ccccc4)cc23)cc1C1CCCC1	125
C=CCc1cc(OC)c(O)c(C(=O)NCCO)c1	101
NCCCC(O)(P(=O)(O)O)P(=O)(O)O.O.O.O.[Na+]	120
Cc1cccc(N(C)C(=S)Oc2ccc3ccccc3c2)c1	109
COc1cc(NC(=O)c2ccc(-c3ccc(Cl)cc3)o2)cc(OC)c1	107

State the recorded cell viability for this entry: "O=C(NCCCNc1nc(Nc2cccc(NC(=O)N3CCCC3)c2)ncc1I)c1cccs1"
88.1

State the recorded cell viability for this entry: C=C[C@H]1CN2CCC1C[C@@H]2[C@@H](O)c1ccnc2ccccc12 (some centres undefined)
92.6

State the recorded cell viability for this entry: "CCCCCCCCOc1ccccc1C(=O)Nc1ccc(C(=O)OCC[N+](C)(CC)CC)cc1"
86.2

State the recorded cell viability for this entry: O=C1CCC[C@@H]2[C@H]3CCC[N+]4([O-])CCC[C@@H](CN12)[C@@H]34 (some centres undefined)
83.5

State the recorded cell viability for this entry: "OC1=CC2=C(C(=O)\C=C(/O2)C3=CC=CC=C3)C(=C1O)O"
110

State the recorded cell viability for this entry: "COc1cccc2c(NCc3ccccc3)nc(-n3c(N)nc4ccccc43)nc12"
114

State the recorded cell viability for this entry: "C[C@@H](NCc1cc2ccccc2[nH]1)c1cccc2ccccc12"
84.7

State the recorded cell viability for this entry: "CN1/C=C(\N=C(NC2=CC=C(C=C2)C(=O)N3CCOCC3)/C1=O)/C4=C(C)C(=CC=C4)NC(=O)C5=CC=C(C=C5)C(C)(C)C"
106

State the recorded cell viability for this entry: "O=C(O)[C@@H](c1ccc(OCc2ccc3ccccc3n2)cc1)C1CCCC1"
109

State the recorded cell viability for this entry: CN1C2=CC(=O)/C(=N/NC(N)=O)C=C2CC1S(=O)(=O)[O-].[Na+] (centres undefined)
113

State the recorded cell viability for this entry: "Nc1nc(Nc2ccc([S+](N)(=O)[O-])cc2)nn1C(=O)c1c(F)cccc1F"
115

----------
Tested on: P12-Ichikawa
protocol-summary: cell viability relative to DMSO control; higher = less cytotoxic
condition-summary: RPMI 5 mM glucose + 10% dialyzed FBS; 48 h; 0.0632 µM
outcome-measure: cell viability (%)
A number alone suffices; assume %.

# annotated cases, reported cell viability shown
compound	target-desc	cell viability / %
CN1CCN(Cc2ccc(NC(=O)Nc3ccc(Oc4cc(NC(=O)C5CC5)ncn4)cc3)cc2C(F)(F)F)CC1	P12-Ichikawa	122
NCCCC(O)(P(=O)(O)O)P(=O)(O)O.O.O.O.[Na+]	P12-Ichikawa	117
NC1CCC(Nc2nc(Nc3ccc(C(=O)N4CCCCC4)cc3)c3ncn(-c4cccc(F)c4)c3n2)CC1 (stereo not drawn)	P12-Ichikawa	121

State the recorded cell viability for this entry: "CN1/C=C(\N=C(NC2=CC=C(C=C2)C(=O)N3CCOCC3)/C1=O)/C4=C(C)C(=CC=C4)NC(=O)C5=CC=C(C=C5)C(C)(C)C"
108

State the recorded cell viability for this entry: "CN(C)CC[C@H](CSc1ccccc1)Nc1ccc([S+](=O)([O-])NC(=O)c2ccc(N3CCN(Cc4ccccc4-c4ccc(Cl)cc4)CC3)cc2)cc1[N+](=O)[O-]"
119

State the recorded cell viability for this entry: "Cc1cccc(N(C)C(=S)Oc2ccc3ccccc3c2)c1"
104

State the recorded cell viability for this entry: "CNC(=O)c1ccc(N2C(=S)N(c3ccc(C#N)c(C(F)(F)F)c3)C(=O)C2(C)C)cc1F"
120

State the recorded cell viability for this entry: "C[C@H](NC(=O)Cc1cc(F)cc(F)c1)C(=O)N[C@@H]1C(=O)N(C)c2ccccc2-c2ccccc21"
118

State the recorded cell viability for this entry: C=C[C@H]1CN2CCC1C[C@@H]2[C@@H](O)c1ccnc2ccccc12 (stereo partly drawn)
97.2

State the recorded cell viability for this entry: COCCCOc1ccnc(C[S+]([O-])c2nc3ccccc3[nH]2)c1C (stereo not drawn)
134

State the recorded cell viability for this entry: "CN(CCOc1ccc(NS(C)(=O)=O)cc1)CCc1ccc(NS(C)(=O)=O)cc1"
117

State the recorded cell viability for this entry: "Cn1c(=O)c2[nH]cnc2n(C)c1=O"
111

State the recorded cell viability for this entry: "C[N]1N=CC2=C1C=C(C(=C2)OC3=CC=C(NC(=O)\C4=C\C=C(\C)N(C4=O)C5=CC=C(F)C=C5)C=C3F)C6=C[NH]N=C6"
124

----------
Each entry below carries its reported cell viability.
Test system: P12-Ichikawa
protocol-summary: cell viability relative to DMSO control; higher = less cytotoxic
condition-summary: HPLM + 10% dialyzed FBS; 48 h; 46.1 µM
A number alone suffices; assume %.

# annotated cases, reported cell viability shown
molecule	cell viability / %
CN(CCOc1ccc(NS(C)(=O)=O)cc1)CCc1ccc(NS(C)(=O)=O)cc1	121
O=[S+]([O-])(O)c1ccc2cc(/N=N/c3cc([S+](=O)([O-])O)c4cccnc4c3O)ccc2c1	58.8
CN(c1nccc(=O)[nH]1)C1CCN(c2nc3ccccc3n2Cc2ccc(F)cc2)CC1	110
N#CC1(c2ccc(NC(=O)c3cccnc3NCc3ccncc3)cc2)CCCC1	102

Request: cell viability, test system P12-Ichikawa, entry "O=[N+]([O-])c1ccc(Nc2ccccc2-c2ccccc2)c2nonc12"
89.4

Request: cell viability, test system P12-Ichikawa, entry "CN(C)/[N+]([O-])=N/Oc1cc(ON[N+](=O)N2CCN(C(=O)c3cc(Cc4n[nH]c(=O)c5ccccc45)ccc3F)CC2)c([N+](=O)[O-])cc1[N+](=O)[O-]"
99.4

Request: cell viability, test system P12-Ichikawa, entry O=C1CCC[C@@H]2[C@H]3CCC[N+]4([O-])CCC[C@@H](CN12)[C@@H]34 (stereo partly drawn)
97.7

Request: cell viability, test system P12-Ichikawa, entry "C[N]1N=CC2=C1C=C(C(=C2)OC3=CC=C(NC(=O)\C4=C\C=C(\C)N(C4=O)C5=CC=C(F)C=C5)C=C3F)C6=C[NH]N=C6"
8.97

----------
Each entry below carries its reported cell viability.
Test system: NOMO1
protocol-summary: cell viability relative to DMSO control; higher = less cytotoxic
condition-summary: RPMI 5 mM glucose + 10% FBS; 48 h; 1.71 µM
A number alone suffices; assume %.

# annotated cases, reported cell viability shown
compound	cell viability (%)
CC(Cc1ccc(O)c(O)c1)(NN)C(=O)O (stereo not given)	109
CCOC(CN1C(=O)[C@](CC(=O)Nc2ccc(C)cc2)(NC(=O)Nc2ccc(C)cc2)c2ccccc21)OCC	125
CN(c1nccc(=O)[nH]1)C1CCN(c2nc3ccccc3n2Cc2ccc(F)cc2)CC1	126
C=CCc1cc(OC)c(O)c(C(=O)NCCO)c1	106

State the recorded cell viability for this entry: "FC(F)(F)C1=CC=C2C(SCCCCCO\C3=C\O\C(CN4CCOCC4)=C/C3=O)=CC=NC2=C1"
121
